conditions: in isopropanol, 303.15 K
endpoint: solubility (mole fraction)
The response must contain the number and no unit.

Please report the measured solubility (mole fraction) for `O=C(N[C@@H](CO)C(=O)O)OCc1ccccc1`
0.0841

---

details: in acetonitrile, 303.15 K
endpoint: solubility (mole fraction)
// response body must contain only the number

Identify measured solubility (mole fraction) corresponding to `O=C(N[C@@H](CO)C(=O)O)OCc1ccccc1`
0.0161

---

conditions: in methyl acetate, 303.15 K
endpoint: solubility (mole fraction)
Answer with a bare number; do not write a unit.

Identify solubility (mole fraction) associated with the molecule `O=C(N[C@@H](CO)C(=O)O)OCc1ccccc1`
0.0418
